Target: Protein S100-A4 (Homo sapiens)
Assay: human S100A4 peptide interaction inhibition curves – biochemical, fluorescence polarization, cherry-picked hits, dose response (AID 687001)
Settings: FP, S100A4/TAMRA-myosin IIA peptide binding; series mostly up to 11 µM
Results with a measured potency or affinity are listed apart. Active and inactive are the calls of the source.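 How the source made its calls: active means signal-lowering compounds whose fitted half-maximal concentration is at or below twice the top tested dose in every run; inconclusive means runs disagree, flat 30 to 70% inhibition, or poor curve fit; inactive means the rest.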
Assay endpoint: activity change, negative = inhibition

{"Compound": "Cc1cc(C(=O)NC2CCCN(Cc3ccc(Cl)cc3)C2)n(C)n1 (centres undefined)", "activity change, negative = inhibition": "inactive"}
{"Compound": "Cc1cc(OCC(=O)NCCc2c[nH]c3ccccc23)c2c(C)cc(=O)oc2c1", "activity change, negative = inhibition": "inactive"}
{"Compound": "CC(OC(=O)CSCC(=O)Nc1ccc(Cl)cc1)C(=O)N(C)Cc1ccccc1 (centres undefined)", "activity change, negative = inhibition": "inactive"}
{"Compound": "CC(C)CC(=O)Nc1c2c(nn1-c1ccc(F)cc1)CS(=O)C2 (centres undefined)", "activity change, negative = inhibition": "inactive"}
{"Compound": "Cc1ccc(NC(=O)CCCCCN2C(=O)[C@@H]3Cc4ccccc4CN3C2=O)cc1", "activity change, negative = inhibition": "inactive"}

Prompt: Return activity change, negative = inhibition (reported value) for this compound: O=C(NC1CCCC1)N1CCCCN2[C@@H](CO)[C@@H](c3ccc(-c4cccnc4)cc3)[C@@H]2C1
Response: inactive

Prompt: Give the value of activity change, negative = inhibition reported for the following: COc1cccc(CN2CC3(CN(C)C3)c3c([nH]c4cc(OC)ccc34)[C@@H]2CO)c1
Response: inactive

Prompt: Look up and report measured activity change, negative = inhibition for this entry: CC(=O)N1CC(C)Oc2ccc(S(=O)(=O)NC(CC(=O)O)c3cc(C)ccc3C)cc21 (centres undefined)
Response: inactive

Prompt: Using the record for C[C@H]1CN([C@@H](C)CO)S(=O)(=O)c2ccc(C3=CCCCC3)cc2O[C@H]1CN(C)Cc1ccccc1 , state its measured activity change, negative = inhibition.
Response: inactive

====

Molecular target: Protein S100-A4 (Homo sapiens)
Assay: human S100A4 peptide interaction inhibition curves – biochemical, fluorescence polarization, cherry-picked hits, dose response (AID 687001)
Settings: FP, S100A4/TAMRA-myosin IIA peptide binding; series mostly up to 11 µM
Measured potencies and affinities stand elsewhere. The source made the active and inactive calls.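 How the source made its calls: active means signal-lowering compounds whose fitted half-maximal concentration is at or below twice the top tested dose in every run; inconclusive means runs disagree, flat 30 to 70% inhibition, or poor curve fit; inactive means the rest.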
Assay endpoint: activity change, negative = inhibition

Previously resolved entries follow.
{"Compound": "COc1ccc(C(=O)N(C)C2(C)CCS(=O)(=O)C2)cc1OC (centres undefined)", "activity change, negative = inhibition": "inactive"}
{"Compound": "CN(C)CC(=O)N[C@H]1CC[C@@H](CC(=O)NCc2ccc(Cl)cc2)O[C@@H]1CO", "activity change, negative = inhibition": "inactive"}
{"Compound": "COc1ccc(OC)c(NC(=O)CSc2nnc(CNC(=O)c3cc(OC)c(OC)c(OC)c3)o2)c1", "activity change, negative = inhibition": "inactive"}
{"Compound": "O=C(c1ccccc1)N1CC2(C1)[C@H](c1ccccc1)[C@@H](CO)N2Cc1ccccn1", "activity change, negative = inhibition": "inactive"}
{"Compound": "COCCCNC(=O)C[C@@H]1C[C@@]2(C(=O)OC)CCCCC=C2N(Cc2ccc3c(c2)OCO3)C1=O", "activity change, negative = inhibition": "inactive"}
{"Compound": "CC(C)NC(=O)Nc1ccc2c(c1)C(=O)N([C@H](C)CO)C[C@@H](C)[C@H](CN(C)S(=O)(=O)c1ccccc1)OCCCC[C@@H](C)O2", "activity change, negative = inhibition": "inactive"}
{"Compound": "O=C(C[C@H]1CC[C@@H]2[C@H](COC[C@H](O)CN2C(=O)Nc2ccc3c(c2)OCO3)O1)N1CCN(c2ccccc2)CC1", "activity change, negative = inhibition": "inactive"}
{"Compound": "CCCN(CC(=O)Nc1ccccc1C)C(=O)C1CC(=O)N(c2cccc(C)c2C)C1 (centres undefined)", "activity change, negative = inhibition": "inactive"}
{"Compound": "Cn1cnc(CCNC(=O)C[C@@H]2CC[C@H]3[C@@H](COC[C@@H](O)CN3C(=O)C3CC3)O2)c1", "activity change, negative = inhibition": "inactive"}
{"Compound": "COc1cccc(NC(=O)CN(C)C(=O)c2ccc(N3CCCCC3)c([N+](=O)[O-])c2)c1", "activity change, negative = inhibition": "inactive"}

Prompt: // fetch activity change, negative = inhibition given entry CSC[C@H]1CN(Cc2cccnc2)C(=O)[C@@H]1CC(=O)Nc1ccc(Br)cc1
Response: inactive

FYI, the data here is from PubChem BioAssay AID687001.
